src = patent US10039779B2

# assay-summary: Pharmacokinetics of sofosbuvir and ledipasvir alone or in combination
# Type: in vivo
# experimental-setup: in vivo, po, plasma analyte; Sofosbuvir + Ledipasvir; n = 17; mean (% CV)
measured-property: AUC(0-t)
Number first, unit second.

response.value for "CC(C)OC(=O)[C@H](C)N[P@](=O)(OC[C@H]1O[C@@H](n2ccc(=O)[nH]c2=O)[C@](C)(F)[C@@H]1O)Oc1ccccc1" (field: AUC(0-t)) = 1740 ng·h/mL

====

# assay-summary: PK of Sofosbuvir/Ledipasvir tablets fasted or with meals
# experimental-setup: plasma, po, AUCinf, plasma analyte; Sofosbuvir/Ledipasvir Tablet, High-Calorie/High-Fat Meal; n = 29; mean (% CV)
measured-property: AUC(0-inf) (ng·h/mL)
API: value field is a number in ng·h/mL; no unit string.

Note to self: AUC(0-inf) recorded for "COC(=O)N[C@H](C(=O)N1CC2(CC2)C[C@H]1c1ncc(-c2ccc3c(c2)C(F)(F)c2cc(-c4ccc5nc([C@@H]6[C@H]7CC[C@H](C7)N6C(=O)[C@@H](NC(=O)OC)C(C)C)[nH]c5c4)ccc2-3)[nH]1)C(C)C" was 9220
